Test: qHTS Assay for NPC1 Promoter Activators; also: nearly all actives have a fitted effect of over 60% in size;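 as to activation: reporter is driven by a mutant NPC1 promoter; % of control where 0% means no effect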
Conditions: Huh7 NPC1 promoter luciferase reporter, 24 h; series mostly up to 9.22 µM
Screen size: about 320,000 compounds; about 7,600 (2.4%) were called active. Inconclusive results (about 3%) are left out. Calls follow the shape of the dose curve; as a rule, active = well fitted activation curve with a large enough effect; inconclusive = small, poorly fitted or top-dose-only effect; inactive = no such curve, though single readings can be large or run the other way. Many of the other results were omitted from the sample, so actives are more common in it than they were.
Answer with one of the outcomes given here: active, inactive

query: Any idea what this test logged for CCOC(=O)c1sc(NC(=O)C2CSC3(C)CCC(=O)N23)nc1C (stereo unspecified) ?
result: inactive

query: Any idea what this test logged for `COc1ccc2ccn(C)c2c1` ?
result: inactive

query: Any idea what this test logged for `CCc1c(C)nc2cc(C)[nH]n2c1=O` ?
result: inactive

query: Any idea what this test logged for `CCc1c(C)nc2cc(-c3cccs3)[nH]n2c1=O` ?
result: inactive

query: Any idea what this test logged for `Cc1ccc(OCCOc2cccc(/C=N/NC(N)=O)c2)cc1` ?
result: active

query: Any idea what this test logged for `COc1ccc(/C=N/NC(=O)c2ccc3c(c2)OCCO3)c(OC)c1` ?
result: inactive

###

Experiment: qHTS Assay for NPC1 Promoter Activators; also: nearly all actives have a fitted effect of over 60% in size;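 as to activation: reporter is driven by a mutant NPC1 promoter; % of control where 0% means no effect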
Conditions: Huh7 NPC1 promoter luciferase reporter, 24 h; series mostly up to 9.22 µM
The campaign covered roughly 320,000 compounds. About 7,600 (2.4%) were called active. Inconclusive results (about 3%) are left out. Calls follow the shape of the dose curve; as a rule, active = well fitted activation curve with a large enough effect; inconclusive = small, poorly fitted or top-dose-only effect; inactive = no such curve, though single readings can be large or run the other way. Many of the other results were omitted from the sample, so actives are more common in it than they were.
Answer with one of the outcomes given here: T for active, F for inactive

query: Any idea what this test logged for `COC(=O)CNS(=O)(=O)c1ccc(Cc2ccc(S(=O)(=O)NCC(=O)OC)cc2)cc1` ?
result: T

query: Any idea what this test logged for Cc1ccc(CN2CC(C(=O)N3CCN(S(=O)(=O)c4ccccc4)CC3)CC2=O)cc1 (configuration not stated) ?
result: F

query: Any idea what this test logged for `N#CC1(NC(=O)COC(=O)CSc2ccc(F)cc2)CCCCC1` ?
result: F

query: Any idea what this test logged for `CCc1cccc(C)c1N1C(=O)CN(Cc2ccccc2)C1=S` ?
result: F

query: Any idea what this test logged for `COc1ccccc1S(=O)(=O)NCc1ccc(C(=O)N(C)Cc2ccc(F)cc2)cc1` ?
result: F

query: Any idea what this test logged for `O=C(CN1CCN(S(=O)(=O)c2ccc(Cl)s2)CC1)N1CCCCC1` ?
result: F

query: Any idea what this test logged for `c1ccc(CN=C2Nc3ccccc3CS2)nc1` ?
result: T

query: Any idea what this test logged for `CN(C)S(=O)(=O)c1ccc(C(=O)NCC2(N3CCOCC3)CCCCC2)cc1` ?
result: F

query: Any idea what this test logged for CN(CC(=O)NCC(c1ccccc1)N1CCCC1)S(=O)(=O)c1ccc(Cl)cc1 (configuration not stated) ?
result: F

query: Any idea what this test logged for `COC(=O)CNS(=O)(=O)c1ccc(OC)cc1` ?
result: F

query: Any idea what this test logged for `Cc1nc(-c2ccc(NC(=O)c3cccs3)cc2)cs1` ?
result: T

query: Any idea what this test logged for `COc1cccc(C(=O)Nc2cccnc2)c1OC` ?
result: F

query: Any idea what this test logged for COCCN1C(=O)C(=O)/C(=C(/O)c2ccc(S(=O)(=O)N3CCCCC3)cc2)C1c1ccc(OC)c(OC)c1 (configuration not stated) ?
result: F

query: Any idea what this test logged for Cc1c(C(C)CCCO)oc(=O)c2c1Oc1c(C)c(C(C)C[C@@H](C)O)oc(=O)c1C2 (some centres not stated) ?
result: F

query: Any idea what this test logged for `OCC[C@H]1C[C@H](O)[C@@H](O)[C@]2(Cc3ccccc3CO2)O1` ?
result: F

query: Any idea what this test logged for `Cc1cccc(-n2cnc(C(=O)Nc3cccnc3)c2)n1` ?
result: T

query: Any idea what this test logged for `CNS(=O)(=O)c1ccc(C(=O)NCC(=O)NCCc2ccc3c(c2)OCCO3)cc1` ?
result: F

query: Any idea what this test logged for `CN1CCN(S(=O)(=O)c2cccc(C(=O)Nc3sccc3C#N)c2)CC1` ?
result: F

query: Any idea what this test logged for `CCC(=O)Nc1ccc(C(=O)Nc2cc(C)on2)cc1` ?
result: F

query: Any idea what this test logged for `C/C(N)=C(/C#N)C(=O)COC(=O)CNS(=O)(=O)c1ccc(C)cc1` ?
result: F

query: Any idea what this test logged for `CCC1(CC)NC(=O)N(CC(=O)OCC(=O)c2cc(C)c(C)cc2C)C1=O` ?
result: F

query: Any idea what this test logged for `Cc1c(NC(=O)Nc2ccccc2)cccc1[N+](=O)[O-]` ?
result: F

###

Experiment: qHTS Assay for NPC1 Promoter Activators; also: nearly all actives have a fitted effect of over 60% in size;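 as to activation: reporter is driven by a mutant NPC1 promoter; % of control where 0% means no effect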
Conditions: Huh7 NPC1 promoter luciferase reporter, 24 h; series mostly up to 9.22 µM
In all, about 320,000 compounds went through this assay and about 7,600 (2.4%) were called active. About 3% were inconclusive and are not listed. Calls come from the whole dose curve; as a rule, active = well fitted activation curve with a large enough effect; inconclusive = small, poorly fitted or top-dose-only effect; inactive = no such curve, though single readings can be large or run the other way. Shown is part of a subset that was picked to be rich in actives.
Answer with one of the outcomes given here: 1 = active, 0 = inactive

query: Any idea what this test logged for `S=C1NC(c2ccccc2)=NCN1c1ccc(Br)cc1` ?
result: 0

query: Any idea what this test logged for `O=C(NC1=NCCS1)[C@H](Cc1ccccc1)N1C(=O)c2ccccc2C1=O` ?
result: 0

query: Any idea what this test logged for `CCN(CC(=O)NCc1ccc(Cl)cc1)C(=O)c1c(C)noc1C` ?
result: 0

query: Any idea what this test logged for `Cc1ccc(S(=O)(=O)NCCC(=O)NCc2ccc(Cl)cc2)cc1C` ?
result: 0

query: Any idea what this test logged for `CC(C)CC(=O)NC(=S)NCc1ccccc1` ?
result: 0

query: Any idea what this test logged for `Cc1c(CCC(=O)O)c(=O)oc2cc3occ(-c4ccccc4)c3cc12` ?
result: 0

query: Any idea what this test logged for `CCOc1ccc(C(=O)CCC(=O)NC2=NCCS2)cc1` ?
result: 0

query: Any idea what this test logged for COc1ccc(CCNC(=O)COC(=O)C2CC2C)cc1 (stereo not drawn) ?
result: 0

query: Any idea what this test logged for `CS(=O)(=O)Nc1ccccc1C(=O)OCC(=O)NC1CC1` ?
result: 0

query: Any idea what this test logged for `Cc1ccc(NC(=O)CN(C)C(=O)COC(=O)c2nccnc2N)cc1` ?
result: 0

query: Any idea what this test logged for `Cc1cc(C(=O)OCC(=O)Nc2nnc(C(C)C)s2)c2ccccc2n1` ?
result: 0

query: Any idea what this test logged for O=C(Nc1ccc2c(c1)OCO2)C1CC1(Cl)Cl (stereo not drawn) ?
result: 0

query: Any idea what this test logged for `COc1ccccc1C(=O)NCCC(=O)NC1=NCCS1` ?
result: 0

query: Any idea what this test logged for Brc1ccccc1C1N=C(c2ccccc2)NO1 (stereo not drawn) ?
result: 1

query: Any idea what this test logged for `Cc1cccc(C)c1NC(=O)CSc1nc2c([nH]1)c(=O)n(C)c(=O)n2C` ?
result: 0

query: Any idea what this test logged for `O=C(/C=C/c1ccccc1[N+](=O)[O-])OCC(=O)N1CCCC1` ?
result: 0

query: Any idea what this test logged for `Cn1c(N)c(C(=O)COC(=O)COc2ccc(Cl)cc2)c(=O)n(C)c1=O` ?
result: 0

query: Any idea what this test logged for `COCCN(C(=O)CSCc1ccc(C)cc1)c1c(N)n(CC(C)C)c(=O)[nH]c1=O` ?
result: 0

query: Any idea what this test logged for COC(=O)c1ccc(C)c(NC(=O)C2CC(=O)N(C3CCCC(C)C3C)C2)c1 (stereo not drawn) ?
result: 0

query: Any idea what this test logged for `Cc1cccc(NC(=O)CN2CCN(CC(=O)NCC3(N4CCCCC4)CCCCC3)CC2)c1C` ?
result: 0

query: Any idea what this test logged for `O=c1c(-c2ccccc2)coc2cc(O)ccc12` ?
result: 1

query: Any idea what this test logged for `Cc1ccc(S(=O)(=O)N(Cc2ccc(Cl)cc2)c2ccccc2C(=O)NCc2cccnc2)cc1` ?
result: 0

query: Any idea what this test logged for `CC(=O)Nc1cccc(-c2nc3ccccc3s2)c1C` ?
result: 0

###

Test: qHTS Assay for NPC1 Promoter Activators; also: nearly all actives have a fitted effect of over 60% in size; also: potency is read from the fitted curve at half-maximal effect
Conditions: Huh7 NPC1 promoter luciferase reporter, 24 h; series mostly up to 9.22 µM
The whole screen tested about 320,000 compounds, of which about 7,600 (2.4%) were called active. Inconclusive results (about 3%) are left out. This excerpt belongs to a sample that is enriched for actives.
RECORDED_ENDPOINT: Potency

[[record]]
structure_string = "O=C(COC(=O)c1cccc(Cl)c1)NC1CCCCCCC1"
endpoint_result = "inactive"

[[record]]
structure_string = "Cc1nn(Cc2ccccc2)c(C)c1C(=O)N1CCN(CC(=O)Nc2ccccc2Cl)CC1"
endpoint_result = "inactive"

[[record]]
structure_string = "O=S(=O)(NCCCCCCNS(=O)(=O)c1c(F)cccc1F)c1ccc2c(c1)OCCO2"
endpoint_result = "inactive"

[[record]]
structure_string = "CCOc1nnc(C)c2c(C)n(-c3cccc(Cl)c3)nc12"
endpoint_result = "inactive"

[[record]]
structure_string = "COc1ccc(NC(=O)c2ccc(C#CC(C)(C)O)cc2)cc1"
endpoint_result = "inactive"

[[record]]
structure_string = "COCCNc1nnc(SCC(=O)NNC(=O)c2ccco2)s1"
endpoint_result = "inactive"


query: For `COc1ccc(NC(=O)Nc2cccc3cccnc23)cc1` , write its Potency.
result: inactive

query: For `COc1ccc(/C=N/NC(=O)Nc2ccc3nsnc3c2)c(OC)c1` , write its Potency.
result: inactive

query: For `COc1ccc(C(=O)Nc2cccc(S(C)(=O)=O)c2)cc1` , write its Potency.
result: inactive

query: For `COc1ccc(NC(=O)Nc2ccc3nsnc3c2)cc1` , write its Potency.
result: 1780 nM (active)

query: For `COc1ccc(NC(=O)c2ccc(OC)cc2)cc1` , write its Potency.
result: 1780 nM (active)
